Data credit: patent US9624214B2

Record form. Attribute: MEC. Fill in for each entry.
MEASUREMENT TARGET: recombinant guanylate cyclase reporter cell line (Rattus norvegicus, UniProt P19686+P20595)
Construct: expressed in transfected cells
METHOD DESCRIPTION: B-2. Action on recombinant guanylate cyclase reporter cell line
Assay type: cell-based
PROTOCOL CONDITIONS: MEC = minimal effective concentration; in some cases mean values from individual determinations
Give bare numbers, in µM.

Worked cases, answers included:
COMPOUND: Cc1cc(OCc2c(F)cccc2F)c2nc(C)c(C(=O)NC(CN)c3cc(F)c(F)c(F)c3)n2c1 (racemic)
MEC (µM): 0.30
//
COMPOUND: CCCC[C@H](CN1CCOCC1)NC(=O)c1c(C)nc2c(OCc3c(F)cccc3F)cccn12
MEC (µM): 0.30
//
COMPOUND: Cc1cc(OCc2c(F)cccc2F)c2nc(C)c(C(=O)NCC3CNCCO3)n2c1 (racemic)
MEC (µM): 1.00
//
COMPOUND: Cc1cc(OCc2c(F)cccc2F)c2nc(C)c(C(=O)NC(CN)c3cccc(OC(F)F)c3)n2c1 (racemic)
MEC (µM): 1.00
//
COMPOUND: Cc1nc2c(OCc3c(F)cccc3F)cccn2c1C(=O)NCC(C)(N)COCc1ccccc1 (racemic)
MEC (µM): 1.00
//
COMPOUND: Cc1nc2c(OCc3c(F)cccc3F)cccn2c1C(=O)NCCCN(C)C
MEC (µM): 1.00
//
COMPOUND: Cc1cc(OCc2c(F)cccc2F)c2nc(C)c(C(=O)NC3CNCC3F)n2c1 (racemic)
MEC (µM): 1.00
//
COMPOUND: C#Cc1cc(OCc2c(F)cccc2F)c2nc(C)c(C(=O)NCC(C)(N)CCC)n2c1 (stereo not drawn) [Example 356]
MEC (µM): 0.10
//
COMPOUND: Cc1cc(OCc2c(F)cccc2F)c2nc(C)c(C(=O)NC3CCC3N)n2c1 (single isomer, unassigned; enantiomer b) [Example 329]
MEC (µM): 0.30
//
COMPOUND: CCCC(C)(N)CNC(=O)c1c(C)nc2c(OCc3c(F)cccc3F)cc(CF)cn12 (stereo not drawn)
MEC (µM): 0.10

Record MEC per entry; entries follow.
1. COCC(C)(N)CNC(=O)c1c(C)nc2c(OCc3c(F)cccc3F)cc(Cl)cn12 (single isomer, unassigned) [Example 196]
2. Cc1nc2c(OCc3c(F)cccc3F)cccn2c1C(=O)NCCNCC(F)F

### Response
1.00
1.65

---

Record form. Attribute: MEC. Fill in for each entry.
MEASUREMENT TARGET: recombinant guanylate cyclase reporter cell line (Rattus norvegicus, UniProt P19686+P20595)
Construct: expressed in transfected cells
Sequence (P20595 1-619): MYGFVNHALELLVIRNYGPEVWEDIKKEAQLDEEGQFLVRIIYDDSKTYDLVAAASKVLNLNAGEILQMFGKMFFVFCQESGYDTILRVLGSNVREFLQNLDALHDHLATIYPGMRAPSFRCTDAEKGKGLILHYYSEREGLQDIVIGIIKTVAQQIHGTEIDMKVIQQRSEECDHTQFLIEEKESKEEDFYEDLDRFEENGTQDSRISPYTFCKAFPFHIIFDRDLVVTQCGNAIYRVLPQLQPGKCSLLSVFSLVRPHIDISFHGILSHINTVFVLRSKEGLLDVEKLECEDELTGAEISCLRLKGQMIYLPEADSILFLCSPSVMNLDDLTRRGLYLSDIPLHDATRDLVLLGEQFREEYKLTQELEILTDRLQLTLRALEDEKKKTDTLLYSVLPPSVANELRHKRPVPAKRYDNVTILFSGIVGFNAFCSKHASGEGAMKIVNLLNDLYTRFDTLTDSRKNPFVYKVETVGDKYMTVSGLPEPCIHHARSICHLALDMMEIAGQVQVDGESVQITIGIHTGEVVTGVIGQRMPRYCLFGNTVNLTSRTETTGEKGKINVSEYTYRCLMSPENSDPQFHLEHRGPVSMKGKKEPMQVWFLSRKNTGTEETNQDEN
Sequence (P19686 1-690): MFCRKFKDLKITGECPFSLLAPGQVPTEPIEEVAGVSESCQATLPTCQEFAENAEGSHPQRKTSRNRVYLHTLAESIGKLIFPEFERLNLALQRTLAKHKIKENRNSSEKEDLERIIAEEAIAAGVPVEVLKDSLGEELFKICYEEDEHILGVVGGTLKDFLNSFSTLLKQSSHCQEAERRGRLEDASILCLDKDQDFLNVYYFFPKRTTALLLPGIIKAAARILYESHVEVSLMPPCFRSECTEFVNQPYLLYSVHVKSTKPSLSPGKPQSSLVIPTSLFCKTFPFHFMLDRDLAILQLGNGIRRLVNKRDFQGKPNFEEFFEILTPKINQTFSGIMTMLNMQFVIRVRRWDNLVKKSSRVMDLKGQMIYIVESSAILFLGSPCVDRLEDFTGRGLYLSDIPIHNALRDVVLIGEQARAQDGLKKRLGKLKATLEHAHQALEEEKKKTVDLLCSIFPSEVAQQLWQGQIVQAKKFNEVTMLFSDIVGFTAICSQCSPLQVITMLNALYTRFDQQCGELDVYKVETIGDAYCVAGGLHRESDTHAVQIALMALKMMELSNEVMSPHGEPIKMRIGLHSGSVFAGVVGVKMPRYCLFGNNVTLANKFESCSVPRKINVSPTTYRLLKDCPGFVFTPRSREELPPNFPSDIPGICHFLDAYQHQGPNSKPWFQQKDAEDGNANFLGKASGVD
METHOD DESCRIPTION: B-2. Action on recombinant guanylate cyclase reporter cell line
Assay type: cell-based
PROTOCOL CONDITIONS: MEC = minimal effective concentration; in some cases mean values from individual determinations
Experimental: B-2. Action on Recombinant Guanylate Cyclase Reporter Cell Line The cellular action of the compounds according to the invention is determined on a recombinant guanylate cyclase reporter cell line, as described in F. Wunder et al., Anal. Biochem. 339, 104-112 (2005). Representative MEC values (MEC=minimal effective concentration) for the compounds according to the invention are shown in the following table (in some cases as mean values obtained from individual determinations): […]
One number for each entry, in µM.

Worked cases, answers included:
MOLECULE: Cc1cc(OCc2c(F)cccc2F)c2nc(C)c(C(=O)NC(CN)c3cnn(C)c3)n2c1 (racemic) [Example 387]
MEC [µM]: 10.0

MOLECULE: Cc1cc(OCc2c(F)cccc2F)c2nc(C)c(C(=O)NCCN3CCOCC3)n2c1 [Example 136]
MEC [µM]: 0.10

MOLECULE: CC(=O)Nc1cccc(C(CN)NC(=O)c2c(C)nc3c(OCc4c(F)cccc4F)cc(C)cn23)c1 (racemic) [Example 396]
MEC [µM]: 3.00

MOLECULE: COCC(N)CNC(=O)c1c(C)nc2c(OCc3c(F)cccc3F)cccn12 (single isomer, unassigned; enantiomer b) [Example 248]
MEC [µM]: 1.00

Record MEC per entry; entries follow.
1. CCCC(C)(N)CNC(=O)c1c(C)nc2c(OCc3cccc(C)c3F)cc(C)cn12 (racemic) [Example 317]
2. Cc1nc2c(OCc3c(F)cccc3F)cc(F)cn2c1C(=O)NC(CN)c1ccc(F)c(F)c1 (stereo not shown) [Example 53]
3. Cc1cc(OCc2c(F)cccc2F)c2nc(C)c(C(=O)NCCN3CCC(F)(F)CC3)n2c1 [Example 163]

### Response
1. 0.30
2. 0.30
3. 0.30
